- System: HOSE1C
- assay-remarks: drug sensitivity score (DSS) from 5-point dose-response viability curve (DSS (area-under-curve based score)); higher = more sensitive (stronger growth inhibition or killing); extreme values may be limits of the assay
- measurement-conditions: exposure time: 72 h; concentration range: 5 concentrations over 10,000-fold range
readout-kind: drug sensitivity score
Give the figure by itself; no unit, no explanation.

What drug sensitivity score value was documented for this compound, CC(C)[C@H]1C(=O)N[C@@H](CCCNC(=N)N)C(=O)NCC(=O)N[C@@H](CC(=O)O)C(=O)N[C@H](Cc2ccccc2)C(=O)N1C [Cilengitide] ?
0

What do we get for Cn1nnc2c(C(N)=O)ncn2c1=O [Temozolomide] ?
0

Follow-up entry: N[C@@H]1CCCN(c2c(/C=C3\SC(=O)NC3=O)cccc2-c2ccccc2)C1
0.2

Try this compound too: Cc1cc(-c2nc(-c3ccc(OC(F)(F)F)cc3)no2)nn1Cc1ccnc(N2CCN(C3CC3)CC2)c1
0

What do we get for C[C@H]1C[C@@H](n2c(Nc3ccc(OC(F)(F)F)cc3)nc3cc(CCC(=O)O)ccc32)CC(C)(C)C1 ?
0

Please do the same for CC[C@@H]1CN(C(=O)NCC(F)(F)F)C[C@@H]1c1cnc2cnc3[nH]ccc3n12 as well.
0

What about CN[C@@H]1C[C@H]2O[C@@](C)([C@@H]1OC)n1c3ccccc3c3c4c(c5c6ccccc6n2c5c31)C(=O)N[C@H]4O ?
27.8

Now give it for Cn1ncnc1[C@H]1c2n[nH]c(=O)c3cc(F)cc(c23)N[C@@H]1c1ccc(F)cc1 too.
10.1

Follow-up entry: CC[C@H](NC(=O)[C@H](C)NC)C(=O)N1C[C@@H](O)C[C@H]1Cc1c(-c2[nH]c3cc(F)ccc3c2C[C@@H]2C[C@H](O)CN2C(=O)[C@H](CC)NC(=O)[C@H](C)NC)[nH]c2cc(F)ccc12
0

Same read-out for CO[C@H]1C(=O)[C@]2(C)[C@@H](OC)C[C@H]3OC[C@@]3(OC(C)=O)[C@H]2[C@H](OC(=O)c2ccccc2)[C@]2(O)C[C@H](OC(=O)[C@H](O)[C@@H](NC(=O)OC(C)(C)C)c3ccccc3)C(C)=C1C2(C)C ?
29.9

Entry to check: CCC(C)(C)C(=O)O[C@H]1C[C@@H](C)C=C2C=C[C@H](C)[C@H](CC[C@@H]3C[C@@H](O)CC(=O)O3)[C@H]21
8.7

Now give it for CNc1nc(Nc2cn(C(C)(C)C#N)nc2C)ncc1C(F)(F)F too.
0

// repeat for c1cc(CN2CCCNCCNCCCNCC2)ccc1CN1CCCNCCNCCCNCC1 and report
0

Moving on to the next compound: CC(C)C(=O)Nc1ccc([N+](=O)[O-])c(C(F)(F)F)c1 [Flutamide]
0.2

====

- Tested on: JHOS2
- assay-remarks: drug sensitivity score (DSS) from 5-point dose-response viability curve (DSS (area-under-curve based score)); higher = more sensitive (stronger growth inhibition or killing); extreme values may be limits of the assay
- measurement-conditions: exposure time: 72 h; concentration range: 5 concentrations over 10,000-fold range
This section presents compounds with their documented drug sensitivity score values.
No unit in the answer, please; the number alone is enough.

Record excerpt, results attached:
[[record]]
compound = "CCN(CC)CCNC(=O)c1c(C)[nH]c(/C=C2\\C(=O)Nc3ccc(-c4csc(-c5ccccc5)n4)cc32)c1C"
readout_kind = "drug sensitivity score"
endpoint_value = 0

[[record]]
compound = "COc1ccc(S(=O)(=O)Nc2cccnc2Nc2ccc(O)cc2)cc1"
readout_kind = "drug sensitivity score"
endpoint_value = 7.1

[[record]]
compound = "CN1CCN(CCOc2cc(OC3CCOCC3)c3c(Nc4c(Cl)ccc5c4OCO5)ncnc3c2)CC1"
readout_kind = "drug sensitivity score"
endpoint_value = 3.1


# input for lookup
For JHOS2, provide drug sensitivity score of CNc1nc(-c2ccc3c(N)n[nH]c3c2)cc(N2C[C@@H](C(=O)NC3CCCCC3)CC[C@H]2C)n1 please.
0.7

====

- System: CAOV3
- assay-remarks: drug sensitivity score (DSS) from 5-point dose-response viability curve (DSS (area-under-curve based score)); higher = more sensitive (stronger growth inhibition or killing); extreme values may be limits of the assay
- measurement-conditions: exposure time: 72 h; concentration range: 5 concentrations over 10,000-fold range
readout-kind: drug sensitivity score

Study these solved cases before continuing.
[[record]]
compound = "CO[C@@H](C)Cn1c(=O)n(C)c2cnc3ccc(-c4cncc(C(C)(C)O)c4)cc3c21"
readout_kind = "drug sensitivity score"
endpoint_value = 9.2

[[record]]
compound = "C=CC(=O)N1CC/C(=C\\c2ccc(F)c([N+](=O)[O-])c2)C(=O)/C(=C/c2ccc(F)c([N+](=O)[O-])c2)C1"
readout_kind = "drug sensitivity score"
endpoint_value = 18.7

[[record]]
compound = "CC(=O)c1cnc2ccc(-c3cc(Cl)c(O)c(Cl)c3)nc2c1N[C@H]1CC[C@H](CN(C)C)CC1"
readout_kind = "drug sensitivity score"
endpoint_value = 13.2


Query: drug sensitivity score; subject: O=C(O)CNC(=O)c1c(O)c2ccccc2n(Cc2ccccc2)c1=O
0

====

Recorded drug sensitivity score by entry
- Test system: CAOV3
- assay-remarks: drug sensitivity score (DSS) from 5-point dose-response viability curve (DSS (area-under-curve based score)); higher = more sensitive (stronger growth inhibition or killing); extreme values may be limits of the assay
- measurement-conditions: exposure time: 72 h; concentration range: 5 concentrations over 10,000-fold range
Give the value as a plain number.

[[record]]
compound = "CCN1CCN(c2ccc(Nc3cc(N(C)C(=O)Nc4c(Cl)c(OC)cc(OC)c4Cl)ncn3)cc2)CC1 [Infigratinib]"
readout_kind = "drug sensitivity score"
endpoint_value = 0

[[record]]
compound = "Cc1cccc(-c2nn3c(c2-c2ccnc4ccc(C(N)=O)cc24)CCC3)n1 [Galunisertib]"
readout_kind = "drug sensitivity score"
endpoint_value = 0


Entry under review: COc1cc(Nc2ncc(F)c(Nc3ccc4c(n3)NC(=O)C(C)(C)O4)n2)cc(OC)c1OC [Tamatinib] . Reported drug sensitivity score?
0

Another compound to look at: Clc1ccccc1C(c1ccccc1)(c1ccccc1)n1cccn1 [TRAM-34]
0

Try this compound next: Cc1ccc(NC(=O)c2ccc(CN3CCN(C)CC3)cc2)cc1Nc1nc(-c2cccnc2)cs1 [Masitinib]
0.2

And what about the compound CC[C@]1(O)C[C@@H]2CN(CCc3c([nH]c4ccccc34)[C@@](C(=O)OC)(c3cc4c(cc3OC)N(C)[C@H]3[C@@](O)(C(=O)OC)[C@H](OC(C)=O)[C@]5(CC)C=CCN6CC[C@]43[C@@H]65)C2)C1 [Vinblastine] ?
22.4

Next: CN(C)CCOc1ccc(/C(=C(/CCCl)c2ccccc2)c2ccccc2)cc1 [Toremifene]
1.8

====

- System: COV318
- assay-remarks: drug sensitivity score (DSS) from 5-point dose-response viability curve (DSS (area-under-curve based score)); higher = more sensitive (stronger growth inhibition or killing); extreme values may be limits of the assay
- measurement-conditions: exposure time: 72 h; concentration range: 5 concentrations over 10,000-fold range
Lab note: compare drug sensitivity score against 1. Equal or greater, write Condition met. Smaller, write Condition not met.

[[record]]
compound = "CC[C@@](C)(Nc1ccnc(-c2c[nH]c3ncccc23)n1)C(=O)NCC(F)(F)F"
group_label = "Condition not met"


Hi, just wondering whether CC(C)NC(=O)COc1cccc(-c2nc(Nc3ccc4[nH]ncc4c3)c3ccccc3n2)c1 shows drug sensitivity score of 1 or higher.
Condition not met

Lookup CN(C)CCOc1ccc(/C(=C(/CCCl)c2ccccc2)c2ccccc2)cc1
Condition met

Proceed to C[C@@H]1CN(Cc2ccc(F)cc2)[C@@H](C)CN1C(=O)c1cc2c(C(=O)C(=O)N(C)C)cn(C)c2cc1Cl
Condition not met

Please give the result for COc1cc2c(cc1-c1c(C)noc1C)ncc1[nH]c(=O)n([C@H](C)c3ccccn3)c12 too.
Condition met

O=C1NC(=O)[C@@H](c2cn3c4c(cccc24)CCC3)[C@@H]1c1c[nH]c2ccccc12 [Tivantinib] , same question.
Condition met

Next: CC(=O)O[C@H]1C(=O)[C@@]2(C)[C@H]([C@H](OC(=O)c3ccccc3)[C@]3(O)C[C@H](OC(=O)[C@H](O)[C@@H](NC(=O)c4ccccc4)c4ccccc4)C(C)=C1C3(C)C)[C@]1(OC(C)=O)CO[C@@H]1C[C@@H]2O
Condition met

Same question, COc1cc2nccc(Oc3ccc(NC(=O)C4(C(=O)Nc5ccc(F)cc5)CC4)cc3)c2cc1OC [Cabozantinib] this time
Condition met

====

Recorded drug sensitivity score for the following compounds
- Tested on: OVCAR4
- assay-remarks: drug sensitivity score (DSS) from 5-point dose-response viability curve (DSS (area-under-curve based score)); higher = more sensitive (stronger growth inhibition or killing); extreme values may be limits of the assay
- measurement-conditions: exposure time: 72 h; concentration range: 5 concentrations over 10,000-fold range
# output: bare number, no unit

[[record]]
compound = "Cc1cc(Nc2ncc(Cl)c(Nc3ccccc3S(=O)(=O)C(C)C)n2)c(OC(C)C)cc1C1CCNCC1"
readout_kind = "drug sensitivity score"
endpoint_value = 1.5

[[record]]
compound = "N#CCNC(=O)c1ccc(-c2ccnc(Nc3ccc(N4CCOCC4)cc3)n2)cc1"
readout_kind = "drug sensitivity score"
endpoint_value = 0

[[record]]
compound = "Cn1nccc1Nc1nccc(-c2ccn([C@H](CO)c3ccc(Cl)c(F)c3)c(=O)c2)n1"
readout_kind = "drug sensitivity score"
endpoint_value = 0.8

[[record]]
compound = "CCS(=O)(=O)N1CC(CC#N)(n2cc(-c3ncnc4[nH]ccc34)cn2)C1"
readout_kind = "drug sensitivity score"
endpoint_value = 0

[[record]]
compound = "COC(=O)C[C@](O)(CCCC(C)(C)O)C(=O)O[C@@H]1C(OC)=C[C@]23CCCN2CCc2cc4c(cc2[C@H]13)OCO4"
readout_kind = "drug sensitivity score"
endpoint_value = 20.9

[[record]]
compound = "COc1cc([C@@H]2c3cc4c(cc3[C@@H](O[C@@H]3O[C@@H]5CO[C@@H](C)O[C@H]5[C@H](O)[C@H]3O)[C@H]3COC(=O)[C@H]23)OCO4)cc(OC)c1O [Etoposide]"
readout_kind = "drug sensitivity score"
endpoint_value = 0

[[record]]
compound = "NCC(=O)Nc1ccc(-n2nc(C(F)(F)F)cc2-c2ccc3c(ccc4ccccc43)c2)cc1"
readout_kind = "drug sensitivity score"
endpoint_value = 0


Could you share what drug sensitivity score was measured for Cn1c(Nc2ccc(C(F)(F)F)cc2)nc2cc(Oc3ccnc(-c4ncc(C(F)(F)F)[nH]4)c3)ccc21 , tested on OVCAR4?
0.3
